# method-description: NCI Yeast Anticancer Drug Screen. Data for the sgs1 strain (AID 173);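 further: 0% = growth of vehicle-only control cultures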
# cond: S. cerevisiae sgs1 mutant, at 3.7 µM, stronger effect = higher value
This is part of a sample that, as a whole, favours compounds with a hit. Of some 79,000 tested, about 15% had one in any assay.
property-name: growth inhibition (%)
Field: numeric (%). Do not append units.

Below are worked cases with known answers.
| compound | units-label | growth inhibition |
| --- | --- | --- |
| C[Si](C)(C)Cc1ccccc1C(=O)O | % | 1 |
| CC[N+]1(C)CCC(O)(/C=C/c2ccc(Cl)c(Cl)c2)C(C(=O)/C=C/c2ccc(Cl)c(Cl)c2)C1 (configuration not stated) | % | 71 |
| COc1ccc(C(=O)OCCc2ccccc2)cc1 | % | 7 |
| O=C(CSS(=O)(=O)O)c1ccccc1 | % | 2 |
| O=S(=O)(O)CC[S][Sn]([S]CCS(=O)(=O)O)([c]1ccccc1)[c]1ccccc1 | % | 32 |
| CCN(CC)CCSc1c2ccccc2nc2cc(NCC(=O)Nc3ccccc3-c3ccccc3NC(=O)CNc3ccc4c(SCCN(CC)CC)c5ccccc5nc4c3)ccc12 | % | -18 |

QUERY: Return reported growth inhibition; argument: `CC(=O)c1ccc(NCN2C(=O)c3ccccc3C2=O)cc1`
RESULT: -28

QUERY: Moving on to the next compound: `O=C(Cc1ccccc1)c1ccc(O)cc1`
RESULT: -39

QUERY: Moving on to the next compound: `[O-]c1c2cc(-[n+]3c(-c4ccccc4)cc(-c4ccccc4)cc3-c3ccccc3)cc1COCCOCCOCCOCCOC2`
RESULT: -2

QUERY: Moving on to the next compound: `Oc1ccc(Cc2nccc3cc(O)c(O)cc23)cc1O`
RESULT: 37

QUERY: Moving on to the next compound: `CCCCCC/C(C)=N/Nc1ccc([N+](=O)[O-])cc1[N+](=O)[O-]`
RESULT: -8

QUERY: Moving on to the next compound: `N=c1oc2ccccc2cc1-c1nc2ccccc2[nH]1`
RESULT: 28

QUERY: Moving on to the next compound: `CN(Cc1cccc2ccccc12)Cc1cccc2ccccc12`
RESULT: 2

QUERY: Moving on to the next compound: `BrC/C=C/C[P+](c1ccccc1)(c1ccccc1)c1ccccc1`
RESULT: 10

QUERY: Moving on to the next compound: `Cc1ccc(Cl)c2c(=O)c3ccccc3[nH]c12`
RESULT: 2

QUERY: Moving on to the next compound: `CNc1ccc2[nH]c3ccccc3c2c1`
RESULT: 4

QUERY: Moving on to the next compound: `CCCC#CCOC(=O)c1cc([N+](=O)[O-])cc([N+](=O)[O-])c1`
RESULT: 97

QUERY: Moving on to the next compound: `CCCCCC(=O)C(C)(c1nc2n(c1O)/C(=N/C(=O)Nc1ccc(Cl)cc1)N=N2)c1nc2n(c1O)/C(=N/C(=O)Nc1ccc(Cl)cc1)N=N2`
RESULT: 1

QUERY: Moving on to the next compound: `CCOC(=O)/C=C1\CCCn2c1ncc(C(=O)OCC)c2=O`
RESULT: 5

QUERY: Moving on to the next compound: CC(O)CN1C(=O)c2cccc3cc([N+](=O)[O-])cc(c23)C1=O (configuration not stated)
RESULT: -15

QUERY: Moving on to the next compound: CCC(C)/C(C)=N/NC(N)=O (configuration not stated)
RESULT: 4

QUERY: Moving on to the next compound: CCCCCCCCCCCCOC1C(COCCN2CCCC2)OC2OC(C)(C)OC21 (configuration not stated)
RESULT: 21
